assayed.target: T1, apical domain of cynomolgus CD71 (cynomolgus, UniProt A0A2K5X958 189-383)
T1 construct: domain: apical domain; also called Cyno apical domain
T1 sequence (A0A2K5X958 entry or part of it): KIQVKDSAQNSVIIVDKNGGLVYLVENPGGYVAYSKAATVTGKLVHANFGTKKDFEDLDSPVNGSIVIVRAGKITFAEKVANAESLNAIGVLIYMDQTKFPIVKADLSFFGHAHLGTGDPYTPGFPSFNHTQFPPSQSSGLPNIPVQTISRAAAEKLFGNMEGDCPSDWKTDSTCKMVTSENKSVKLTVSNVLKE
assay: primary ELISA; further: test concentration or dose not given here
measurement.label: RLU (RLU)

| binder | RLU / RLU |
| --- | --- |
| CD71-binding FN3 domain of SEQ ID NO: 189 (designed binder) MSLPAPKNLVVSRVTEDSARLSWTAPDAAFDSFEIGYFEHTYYGEAIVLTVPGSERSYDLTGLKPGTEYWVQIGGVKGGNWSAPLSAIFTT | 4.87e+06 |
| CD71-binding FN3 domain of SEQ ID NO: 174 (designed binder) MSLPAPKNLVVSRVTEDSARLSWTAPNAAFDSFEIGYFENLYLGEAIVLTVPGSERSYDLTGLKPGTEYWVQIGGVKGGNWSAPLSAIFTT | 4.71e+06 |
| CD71-binding FN3 domain of SEQ ID NO: 175 (designed binder) MSLPAPKNLVVSRVTEDSARLSWTAPDAAFDSFEIAYQELSLWGEAIVLTVPGSERSYDLTGLKPGTEYVVFIGGVKGGVWSVPLSAIFTT | 4.29e+06 |
| CD71-binding FN3 domain of SEQ ID NO: 218 (designed binder) MSLPAPKNLVVSRVTEDSARLSWTAPDAAFDSFEIAYHEDDFYGEAIALLVPGSERSYDLTGLKPGTEYIVHIGGVKGGFFSSPLYAWFTT | 4.72e+06 |
| CD71-binding FN3 domain of SEQ ID NO: 164 (designed binder) MSLPAPKNLVVSRVTEDSARLSWTAPDAAFDSFFIGYLEPQPPGEAIHLYVPGSERSYDLTGLKPGTEYWVQIGGVKGGNWSAPLSAIFTT | 3.78e+06 |
| CD71-binding FN3 domain of SEQ ID NO: 173 (designed binder) MSLPAPKNLVVSRVTEDSARLSWTAPDAAFDSFEIAYQELSLWGEAIVLTVPGSERSYDLTGLKPGTEYYVHIGGVKGGIWSSPLVAHFTT | 5.65e+06 |
| CD71-binding FN3 domain of SEQ ID NO: 182 (designed binder) MSLPAPENLVVSRVTEDSARLSWTAPDAAFDSFEIGYWENAYKGEAIVLTVPGSERSYDLTGLKPGTEYVVFIGGVKGGVWSVPLSVIFTT | 4.96e+06 |
| CD71-binding FN3 domain of SEQ ID NO: 122 (designed binder) MSLPAPKNLVVSRVTEDSARPSWTAPDAAFDSFEIGYFENLYLGEAIVLTVPGSERSYDLTGLKPGTEYYVHIGGVKGGIWSSPLSAYFTT | 4.2e+06 |
